Item-by-item account of IC50
- systemTested: Pseudomonas aeruginosa LpxC enzyme (Pseudomonas aeruginosa)
- Construct: made in house; host or cells: E. coli
- Sequence (P47205 whole entry): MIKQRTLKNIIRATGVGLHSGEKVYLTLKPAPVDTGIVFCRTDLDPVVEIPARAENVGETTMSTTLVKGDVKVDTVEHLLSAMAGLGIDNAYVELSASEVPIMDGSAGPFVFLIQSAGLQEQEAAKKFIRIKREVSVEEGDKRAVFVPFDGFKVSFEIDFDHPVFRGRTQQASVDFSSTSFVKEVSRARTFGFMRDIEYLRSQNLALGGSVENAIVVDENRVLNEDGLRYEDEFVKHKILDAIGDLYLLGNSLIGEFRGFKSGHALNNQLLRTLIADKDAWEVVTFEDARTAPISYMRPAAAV
- protocolNotes: IC50 assay, LpxC enzyme from P. aeruginosa
- Type: biochemical
- assayContext: 0.5 nM enzyme, 25° C., pH 8.0, 20 min; ** = average of 2-8 assays
Report only the number, with the unit µM understood.

Known IC50 results, listed for orientation:
                                   molecule                              systemtested  resultvalue
0  Cc1ccc(-c2ccc(CO[C@](C)(C(=O)NO)[C@@H](O)c3cc(CO)on3)cc2)cc1 [Example 37]  Pseudomonas aeruginosa LpxC enzyme (Pseudomonas aeruginosa)     0.000476
1  Cc1ccc(-c2ccc(CO[C@](C)(C(=O)NO)[C@@H](O)c3cc(C)on3)cc2)nc1 [Example 32]  Pseudomonas aeruginosa LpxC enzyme (Pseudomonas aeruginosa)     0.000286
2  CCCC[C@H](O)[C@](C)(OCc1ccc(-c2ccccc2)cc1)C(=O)NO [Example 5]  Pseudomonas aeruginosa LpxC enzyme (Pseudomonas aeruginosa)       0.0878
3  Cc1cc([C@H](O)[C@](C)(OCc2ccc(-c3ccc(F)cc3)cc2)C(=O)NO)no1 [Example 38]  Pseudomonas aeruginosa LpxC enzyme (Pseudomonas aeruginosa)     0.000132
4  Cc1n[nH]c(C)c1CNC(=O)C(C)(OCc1ccc(-c2ccccc2)cc1)C(=O)NO (stereo not shown) [Example 78]  Pseudomonas aeruginosa LpxC enzyme (Pseudomonas aeruginosa)       0.0055
5  CN(C)S(=O)(=O)c1ccc(-c2ccc(COC(C)(CO)C(=O)NO)cc2)cc1 (stereo not shown) [Example 61]  Pseudomonas aeruginosa LpxC enzyme (Pseudomonas aeruginosa)       0.0602
6  C[S+]([O-])c1cc([C@H](O)[C@](C)(OCc2ccc(-c3ccc(F)cc3)cc2)C(=O)NO)no1 (stereo partly shown) [Example 44]  Pseudomonas aeruginosa LpxC enzyme (Pseudomonas aeruginosa)     0.000283
7  Cn1nncc1[C@H](O)[C@](C)(OCc1ccc(-c2ccccc2)cc1)C(=O)NO [Example 19]  Pseudomonas aeruginosa LpxC enzyme (Pseudomonas aeruginosa)      0.00256

Would you mind telling me what IC50 value was observed for C[C@@](OCc1ccc(-c2ccccc2)cc1)(C(=O)NO)[C@@H](O)c1nccs1 [Example 20] ?
0.000726

What value of IC50 has been reported for the following molecule? Cc1cc(F)ccc1-c1ccc(COC(C)(CO)C(=O)NO)cc1 (stereo not shown) [Example 63]
0.0174

Fill in: IC50 of CCN1CC(CNC(=O)C(C)(OCc2ccc(-c3ccccc3)cc2)C(=O)NO)CC1=O (stereo not shown) [Example 82] is ___
0.0486
